Biological target: T1, recombinant extracellular domain of human TROP2 (human, UniProt P09758 27-274)
T1 construct: extracellular domain; Commercial protein (Acrobiosystem), used as the analyte in SPR; also called Trophoblast antigen 2; GA733-1
T1 sequence (looked up): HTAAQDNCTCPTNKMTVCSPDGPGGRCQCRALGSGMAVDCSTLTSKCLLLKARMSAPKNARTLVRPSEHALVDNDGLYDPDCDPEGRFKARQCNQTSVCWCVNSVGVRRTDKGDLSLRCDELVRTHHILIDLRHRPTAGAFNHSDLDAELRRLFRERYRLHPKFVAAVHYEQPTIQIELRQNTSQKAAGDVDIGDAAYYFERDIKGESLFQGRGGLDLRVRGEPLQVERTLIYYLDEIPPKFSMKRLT
Assay: SPR, Biacore 8K, antibody captured on Protein A chip, TROP2 ECD as analyte, 25 C, 1:1 model
Experimental: Binding kinetics and affinity analysis are performed. Surface Plasmon Resonance (SPR) analysis is performed on a Biacore 8K (GE healthcare) with a Sensor Chip Protein A (GE healthcare) following manufacturer's instructions. All measurements are performed at 25° C. in the HBS-EP+ buffer (10 mM HEPES, pH 7.4, 150 mM NaCl, 3 mM EDTA, and 0.05% surfactant P20). […]
property: Kd (nM)
Report as a plain number; the unit nM is understood.

Known results for binders:
- binder: "Ab0064 (antibody, human IgG1, kappa, V domains shown, Humanized IgG; also called Ab0001-huV8-VL / Ab0001-huV5-VH) VH: QVQLVQSGAEVKKPGSSVKVSCKASGYRFTDYVINWVRQAPGQGLEWMGQIYPGSDTFHYNQKFQGRATLTADKSTNTAYMELSSLRSEDTAVYYCARFFEGLAYWGQGTLVTVSS VL: DIQMTQSPSSLSASVGDRVTITCKASQGINNYLSWYQQKPGKAPKSLIYRANRLVSGVPSRFSGSGSGTDFTLTISSLQPEDFATYYCLQYDEFPLTFGGGTKVEIKR"
  unit text: "nM"
  Kd: 0.76
- binder: "Ab0063 (antibody, human IgG1, kappa, V domains shown, Humanized IgG; also called Ab0001-huV8-VL / Ab0001-huV4-VH) VH: QVQLVQSGAEVKKPGSSVKVSCKASGYRFTDYVINWVRQAPGQGLEWMGQIYPGSDSFHYNQKFQGRATLTADKSTNTAYMELSSLRSEDTAVYYCARFFEGLAYWGQGTLVTVSS VL: DIQMTQSPSSLSASVGDRVTITCKASQGINNYLSWYQQKPGKAPKSLIYRANRLVSGVPSRFSGSGSGTDFTLTISSLQPEDFATYYCLQYDEFPLTFGGGTKVEIKR"
  unit text: "nM"
  Kd: 0.46

// next entry
(Q) Given the binder Ab0062 (antibody, human IgG1, kappa, V domains shown, Humanized IgG; also called Ab062; Ab0001-huV5-VL / Ab0001-huV6-VH) VH: QVQLVQSGAEVKKPGSSVKVSCKASGYRFTDYVINWVRQAPGQGLEWMGQIYPGSDAFHYNQKFQGRATLTADKSTNTAYMELSSLRSEDTAVYYCARFFEGLAYWGQGTLVTVSS VL: DIQMTQSPSSLSASVGDRVTITCKASQGINNYLSWYQQKPGKAPKSLIYRANRLVDGVPSRFSGSGSGTDFTLTISSLQPEDFATYYCLQYDEFPLTFGGGTKVEIKR , write its reported Kd.
(A) 0.81
